# shrunken log2 fold change per record follows
tested on: Escherichia coli TOP10; experiment: shrunken log2 fold change of peptide-encoding DNA abundance (4.5 h post-induction vs induction); higher = less antimicrobial activity (less host growth inhibition); details: time post-induction: 4.5 h; library: site-saturation at positions 5, 18, 19, 20
Respond using a number only.

See these solved cases before continuing.
> print(dat)
            chain.sequence              property.name  numeric.value
1  RRIRCRPPRLPRPRPRPEYRPRP  shrunken log2 fold change       -0.00301
2  RRIRVRPPRLPRPRPRPTEMPRP  shrunken log2 fold change        -0.0269

[Q] Reported shrunken log2 fold change, sequence RRIRARPPRLPRPRPRPTNRPRP : ____
[A] 0.05

[Q] Reported shrunken log2 fold change, sequence RRIRARPPRLPRPRPRPHDKPRP : ____
[A] -0.0542

[Q] Reported shrunken log2 fold change, sequence RRIRLRPPRLPRPRPRPKWYPRP : ____
[A] -0.299

[Q] Reported shrunken log2 fold change, sequence RRIRNRPPRLPRPRPRPFEMPRP : ____
[A] 0.0463

[Q] Reported shrunken log2 fold change, sequence RRIRSRPPRLPRPRPRPSLVPRP : ____
[A] -0.345

[Q] Reported shrunken log2 fold change, sequence RRIRTRPPRLPRPRPRPQACPRP : ____
[A] -0.0237

[Q] Reported shrunken log2 fold change, sequence RRIRGRPPRLPRPRPRPDKLPRP : ____
[A] -0.0186

[Q] Reported shrunken log2 fold change, sequence RRIRSRPPRLPRPRPRPIMSPRP : ____
[A] -0.173

[Q] Reported shrunken log2 fold change, sequence RRIRYRPPRLPRPRPRPDKSPRP : ____
[A] -1.15

[Q] Reported shrunken log2 fold change, sequence RRIRWRPPRLPRPRPRPMPMPRP : ____
[A] 0.112

[Q] Reported shrunken log2 fold change, sequence RRIRMRPPRLPRPRPRPEEMPRP : ____
[A] 3.07

[Q] Reported shrunken log2 fold change, sequence RRIRNRPPRLPRPRPRPMYPPRP : ____
[A] -0.271

[Q] Reported shrunken log2 fold change, sequence RRIRRRPPRLPRPRPRPVEQPRP : ____
[A] 0.0679

###

# shrunken log2 fold change per record follows
test system: Escherichia coli TOP10; assay: shrunken log2 fold change of peptide-encoding DNA abundance (4.5 h post-induction vs induction); higher = less antimicrobial activity (less host growth inhibition); conditions: time post-induction: 4.5 h; library: site-saturation at positions 5, 18, 19, 20;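 note: peptides expressed intracellularly from a pBAD plasmid library in pooled LB shake-flask culture, induced with 0.3% L-arabinose, DNA abundance read by NGS, three biological replicates, DESeq2 with apeglm shrinkage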
Respond using a number only.

See these solved cases before continuing.
> print(dat)
            chain.sequence          assayed.target              property.name  numeric.value
1  RRIRARPPRLPRPRPRPNCHPRP  Escherichia coli TOP10  shrunken log2 fold change        -0.0678
2  RRIRDRPPRLPRPRPRPAYNPRP  Escherichia coli TOP10  shrunken log2 fold change         -0.764
3  RRIRIRPPRLPRPRPRPNRAPRP  Escherichia coli TOP10  shrunken log2 fold change            1.1
4  RRIRKRPPRLPRPRPRPICYPRP  Escherichia coli TOP10  shrunken log2 fold change          0.125
5  RRIRPRPPRLPRPRPRPYFAPRP  Escherichia coli TOP10  shrunken log2 fold change        -0.0984
6  RRIRERPPRLPRPRPRPGERPRP  Escherichia coli TOP10  shrunken log2 fold change          0.104

// next item, shrunken log2 fold change requested
[Q] Give shrunken log2 fold change (Escherichia coli TOP10) of the following sequence: RRIRKRPPRLPRPRPRPTRTPRP
[A] 0.951
